Numbers sourced from paper PMC2193327.

Let's look at some sequences and their measured pIC50.
target: HLA-B*3501 (Homo sapiens, UniProt P01889, A329T/A93T/A95T/C349S/D201E/D98Y/E176V/E187L/E204Q/E69T/I218V/K202T/L119I/Q94N/R155S/R180L/S121R/S35A/S48A/T118I/V127L/V306I/V36M/Y140S/Y91F); type: binding
No end group written: not given here.
Entry type: numeric. Quantity: pIC50, the -log10 of concentration in molar units.

Please review the following examples before continuing.
In [3]: df
Out[3]:
                           sequence_content  value_measured
0  FPSDSWCYF [FPSDSWCYF, reference compound]            5.39
1           LWAVVGLSPGEQEY [LWAVVGLSPGEQEY]            5.33
2           LAAVVGLSAGEQEY [LAAVVGLSAGEQEY]            5.77
3           LPAVVGLSAGEQEY [LPAVVGLSAGEQEY]            5.96
4           LAAVVGLSPGEQEY [LAAVVGLSPGEQEY]            5.59
5           LMAVVGLSPGEQEY [LMAVVGLSPGEQEY]            5.19

Ask: Give its pIC50 value. Item: LGAVVGLSPGEQEY [LGAVVGLSPGEQEY]
Reply: 4.76

Ask: Give its pIC50 value. Item: APAVVGLSPGEQEY [APAVVGLSPGEQEY]
Reply: 5.55

Ask: Give its pIC50 value. Item: LPAVVGASPGEQEY [LPAVVGASPGEQEY]
Reply: 5.89
